Recorded values, source paper PMC6576746.

# Tested on: BPH1
# protocolDescription: cells
# Design: species or system panel of human cancer cell lines; Eurofins OncoPanel proliferation; nuclei count by high-content fluorescence imaging, 10-point dose response
# measurementParameters: Homo sapiens, BPH-1, 72 h; cell count, curve inflection point, 3 days
measuredMetric: EC50 (µM)
Please give a number only; it is taken to be in µM.

Look up EC50: C[C@@H]1CC(=O)NN=C1c1ccc(NN=C(C#N)C#N)cc1
7.05

* * *

# System: Hs 578T
# protocolDescription: cells
# Parameters: species or system panel of human cancer cell lines; Eurofins OncoPanel proliferation; nuclei count by high-content fluorescence imaging, 10-point dose response
# measurementParameters: Homo sapiens, Hs-578T, 72 h; cell count, 50% of maximum possible response, 3 days
pIC50: −log10 of the molar value.
measuredMetric: pIC50

Look up pIC50: C[C@@H]1CC(=O)NN=C1c1ccc(NN=C(C#N)C#N)cc1 [levosimendan]
< 4.00

* * *

# System: M059J
# protocolDescription: cells
# Parameters: species or system panel of human cancer cell lines; Eurofins OncoPanel proliferation; nuclei count by high-content fluorescence imaging, 10-point dose response
# measurementParameters: Homo sapiens, M059J, 72 h; cell count, 50% of maximum possible response, 3 days
measuredMetric: pIC50
To interpret pIC50, take it as minus log10 of a concentration measured in moles per litre.

Look up pIC50: C[C@@H]1CC(=O)NN=C1c1ccc(NN=C(C#N)C#N)cc1
4.29

* * *

# Test system: L-428
# protocolDescription: cells
# Design: species or system panel of human cancer cell lines; Eurofins OncoPanel proliferation; nuclei count by high-content fluorescence imaging, 10-point dose response
# measurementParameters: Homo sapiens, L-428, 72 h; cell count, curve inflection point, 3 days
measuredMetric: pEC50
To interpret pEC50, take it as minus log10 of a concentration measured in moles per litre.

Look up pEC50: C[C@@H]1CC(=O)NN=C1c1ccc(NN=C(C#N)C#N)cc1
4.16

* * *

# Tested on: C32TG
# protocolDescription: cells
# Parameters: species or system panel of human cancer cell lines; Eurofins OncoPanel proliferation; nuclei count by high-content fluorescence imaging, 10-point dose response
# measurementParameters: C32TG, 72 h; cell count, curve inflection point, 3 days
measuredMetric: EC50

Look up EC50: C[C@@H]1CC(=O)NN=C1c1ccc(NN=C(C#N)C#N)cc1 [levosimendan]
36.9 µM

* * *

# System: NCI-H520
# protocolDescription: cells
# Parameters: species or system panel of human cancer cell lines; Eurofins OncoPanel proliferation; nuclei count by high-content fluorescence imaging, 10-point dose response
# measurementParameters: Homo sapiens, NCI-H520, 72 h; cell count, 50% of maximum possible response, 3 days
pIC50: −log10 of the molar value.
measuredMetric: pIC50

Look up pIC50: C[C@@H]1CC(=O)NN=C1c1ccc(NN=C(C#N)C#N)cc1
< 4.00

* * *

# System: HepG2
# protocolDescription: cells
# Parameters: species or system panel of human cancer cell lines; Eurofins OncoPanel proliferation; nuclei count by high-content fluorescence imaging, 10-point dose response
# measurementParameters: Homo sapiens, HepG2, 72 h; cell count, 50% of maximum possible response, 3 days
measuredMetric: IC50 (µM)
Please give a number only; it is taken to be in µM.

// lookup IC50 | system=HepG2 | key= C[C@@H]1CC(=O)NN=C1c1ccc(NN=C(C#N)C#N)cc1
42.1

* * *

# System: SW872
# protocolDescription: cells
# Design: species or system panel of human cancer cell lines; Eurofins OncoPanel proliferation; nuclei count by high-content fluorescence imaging, 10-point dose response
# measurementParameters: Homo sapiens, SW872, 72 h; cell count, 50% of maximum possible response, 3 days
measuredMetric: IC50

Look up IC50: C[C@@H]1CC(=O)NN=C1c1ccc(NN=C(C#N)C#N)cc1
35.3 µM

* * *

# System: SK-PN-DW
# protocolDescription: cells
# Design: species or system panel of human cancer cell lines; Eurofins OncoPanel proliferation; nuclei count by high-content fluorescence imaging, 10-point dose response
# measurementParameters: 72 h; cell count, 50% of maximum possible response, 3 days
measuredMetric: pIC50
To interpret pIC50, take it as minus log10 of a concentration measured in moles per litre.

Look up pIC50: C[C@@H]1CC(=O)NN=C1c1ccc(NN=C(C#N)C#N)cc1
4.24

* * *

# System: HOS
# protocolDescription: cells
# Parameters: species or system panel of human cancer cell lines; Eurofins OncoPanel proliferation; nuclei count by high-content fluorescence imaging, 10-point dose response
# measurementParameters: Homo sapiens, HOS, 72 h; cell count, 50% of maximum possible response, 3 days
measuredMetric: IC50 (µM)
Please give a number only; it is taken to be in µM.

Look up IC50: C[C@@H]1CC(=O)NN=C1c1ccc(NN=C(C#N)C#N)cc1
11.4

* * *

# Tested on: Detroit 562
# protocolDescription: cells
# Set-up: species or system panel of human cancer cell lines; Eurofins OncoPanel proliferation; nuclei count by high-content fluorescence imaging, 10-point dose response
# measurementParameters: Homo sapiens, Detroit 562, 72 h; cell count, 50% of maximum possible response, 3 days
measuredMetric: IC50 (µM)
Please give a number only; it is taken to be in µM.

// lookup IC50 | system=Detroit 562 | key= C[C@@H]1CC(=O)NN=C1c1ccc(NN=C(C#N)C#N)cc1
50.9

* * *

# Tested on: MX-1
# protocolDescription: cells
# Design: species or system panel of human cancer cell lines; Eurofins OncoPanel proliferation; nuclei count by high-content fluorescence imaging, 10-point dose response
# measurementParameters: Homo sapiens, MX1, 72 h; cell count, curve inflection point, 3 days
measuredMetric: EC50 (µM)
Please give a number only; it is taken to be in µM.

Look up EC50: C[C@@H]1CC(=O)NN=C1c1ccc(NN=C(C#N)C#N)cc1
40.4

* * *

# System: A431
# protocolDescription: cells
# Parameters: species or system panel of human cancer cell lines; Eurofins OncoPanel proliferation; nuclei count by high-content fluorescence imaging, 10-point dose response
# measurementParameters: Homo sapiens, A-431, 72 h; cell count, curve inflection point, 3 days
measuredMetric: pEC50
To interpret pEC50, take it as minus log10 of a concentration measured in moles per litre.

Look up pEC50: C[C@@H]1CC(=O)NN=C1c1ccc(NN=C(C#N)C#N)cc1
4.35

* * *

# Test system: ST486
# protocolDescription: cells
# Set-up: species or system panel of human cancer cell lines; Eurofins OncoPanel proliferation; nuclei count by high-content fluorescence imaging, 10-point dose response
# measurementParameters: Homo sapiens, ST486, 72 h; cell count, 50% of maximum possible response, 3 days
measuredMetric: IC50 (µM)
Please give a number only; it is taken to be in µM.

Look up IC50: C[C@@H]1CC(=O)NN=C1c1ccc(NN=C(C#N)C#N)cc1
8.16

* * *

# System: SW684
# protocolDescription: cells
# Design: species or system panel of human cancer cell lines; Eurofins OncoPanel proliferation; nuclei count by high-content fluorescence imaging, 10-point dose response
# measurementParameters: Homo sapiens, SW684, 72 h; cell count, 50% of maximum possible response, 3 days
pIC50: −log10 of the molar value.
measuredMetric: pIC50

Look up pIC50: C[C@@H]1CC(=O)NN=C1c1ccc(NN=C(C#N)C#N)cc1
< 4.00

* * *

# System: SKO-007
# protocolDescription: cells
# Design: species or system panel of human cancer cell lines; Eurofins OncoPanel proliferation; nuclei count by high-content fluorescence imaging, 10-point dose response
# measurementParameters: SKO-007, 72 h; cell count, curve inflection point, 3 days
measuredMetric: pEC50
To interpret pEC50, take it as minus log10 of a concentration measured in moles per litre.

Look up pEC50: C[C@@H]1CC(=O)NN=C1c1ccc(NN=C(C#N)C#N)cc1 [levosimendan]
4.38

* * *

# System: A101D
# protocolDescription: cells
# Design: species or system panel of human cancer cell lines; Eurofins OncoPanel proliferation; nuclei count by high-content fluorescence imaging, 10-point dose response
# measurementParameters: Homo sapiens, A101D, 72 h; cell count, curve inflection point, 3 days
measuredMetric: EC50 (µM)
Please give a number only; it is taken to be in µM.

Look up EC50: C[C@@H]1CC(=O)NN=C1c1ccc(NN=C(C#N)C#N)cc1
34.8

* * *

# System: EM-2
# protocolDescription: cells
# Set-up: species or system panel of human cancer cell lines; Eurofins OncoPanel proliferation; nuclei count by high-content fluorescence imaging, 10-point dose response
# measurementParameters: Homo sapiens, EM-2, 72 h; cell count, curve inflection point, 3 days
measuredMetric: EC50 (µM)
Please give a number only; it is taken to be in µM.

Look up EC50: C[C@@H]1CC(=O)NN=C1c1ccc(NN=C(C#N)C#N)cc1
22.3

* * *

# Tested on: J82
# protocolDescription: cells
# Set-up: species or system panel of human cancer cell lines; Eurofins OncoPanel proliferation; nuclei count by high-content fluorescence imaging, 10-point dose response
# measurementParameters: Homo sapiens, J82, 72 h; cell count, 50% of maximum possible response, 3 days
pIC50: −log10 of the molar value.
measuredMetric: pIC50

// lookup pIC50 | system=J82 | key= C[C@@H]1CC(=O)NN=C1c1ccc(NN=C(C#N)C#N)cc1
< 4.00
